Where do the numbers come from? From the supplement of paper PMC9112550.

System: Escherichia coli TOP10;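 note: peptides expressed intracellularly from a pBAD plasmid library in pooled LB shake-flask culture, induced with 0.3% L-arabinose, DNA abundance read by NGS, three biological replicates, DESeq2 with apeglm shrinkage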
Assay: shrunken log2 fold change of peptide-encoding DNA abundance (4.5 h post-induction vs induction); higher = less antimicrobial activity (less host growth inhibition)
Settings: time post-induction: 4.5 h; library: site-saturation at positions 5, 18, 19, 20
Measurement kind: shrunken log2 fold change
I'd appreciate a reply containing only the number, no unit.

Name the reported shrunken log2 fold change value associated with the sequence `RRIRRRPPRLPRPRPRPNWAPRP`
0.164

Name the reported shrunken log2 fold change value associated with the sequence `RRIRCRPPRLPRPRPRPIMAPRP`
-0.236

Name the reported shrunken log2 fold change value associated with the sequence `RRIRKRPPRLPRPRPRPTERPRP`
0.306

Name the reported shrunken log2 fold change value associated with the sequence `RRIRRRPPRLPRPRPRPEKSPRP`
0.0868

Name the reported shrunken log2 fold change value associated with the sequence `RRIRKRPPRLPRPRPRPLYLPRP`
-0.17

Name the reported shrunken log2 fold change value associated with the sequence `RRIRQRPPRLPRPRPRPFVTPRP`
-1.13

Name the reported shrunken log2 fold change value associated with the sequence `RRIRDRPPRLPRPRPRPFGEPRP`
-0.0214

Name the reported shrunken log2 fold change value associated with the sequence `RRIRHRPPRLPRPRPRPIHRPRP`
-0.147

Name the reported shrunken log2 fold change value associated with the sequence `RRIRIRPPRLPRPRPRPHKWPRP`
-0.256

Name the reported shrunken log2 fold change value associated with the sequence `RRIRMRPPRLPRPRPRPRWVPRP`
0.4

Name the reported shrunken log2 fold change value associated with the sequence `RRIRIRPPRLPRPRPRPRIVPRP`
-1.21

Name the reported shrunken log2 fold change value associated with the sequence `RRIRYRPPRLPRPRPRPCLWPRP`
-0.481

Name the reported shrunken log2 fold change value associated with the sequence `RRIRRRPPRLPRPRPRPSCEPRP`
0.13

Name the reported shrunken log2 fold change value associated with the sequence `RRIRPRPPRLPRPRPRPDFMPRP`
-0.309

Name the reported shrunken log2 fold change value associated with the sequence `RRIRRRPPRLPRPRPRPDLIPRP`
0.0201

Name the reported shrunken log2 fold change value associated with the sequence `RRIRTRPPRLPRPRPRPIQLPRP`
-0.122

Name the reported shrunken log2 fold change value associated with the sequence `RRIRMRPPRLPRPRPRPHRSPRP`
-0.0246

Name the reported shrunken log2 fold change value associated with the sequence `RRIRHRPPRLPRPRPRPLYMPRP`
-0.00599

Name the reported shrunken log2 fold change value associated with the sequence `RRIRGRPPRLPRPRPRPRAAPRP`
1.53

Name the reported shrunken log2 fold change value associated with the sequence `RRIRWRPPRLPRPRPRPGQFPRP`
0.061

Name the reported shrunken log2 fold change value associated with the sequence `RRIRKRPPRLPRPRPRPRHIPRP`
-0.0145

Name the reported shrunken log2 fold change value associated with the sequence `RRIRKRPPRLPRPRPRPGMWPRP`
0.438

Name the reported shrunken log2 fold change value associated with the sequence `RRIRWRPPRLPRPRPRPTFQPRP`
0.131

Name the reported shrunken log2 fold change value associated with the sequence `RRIRIRPPRLPRPRPRPLALPRP`
-0.138

Name the reported shrunken log2 fold change value associated with the sequence `RRIRRRPPRLPRPRPRPNKSPRP`
-0.0615

Name the reported shrunken log2 fold change value associated with the sequence `RRIRVRPPRLPRPRPRPTYMPRP`
-0.445

Name the reported shrunken log2 fold change value associated with the sequence `RRIRHRPPRLPRPRPRPNVHPRP`
-0.113

Name the reported shrunken log2 fold change value associated with the sequence `RRIRRRPPRLPRPRPRPPAVPRP`
0.606

Name the reported shrunken log2 fold change value associated with the sequence `RRIRWRPPRLPRPRPRPMDPPRP`
0.0622

Name the reported shrunken log2 fold change value associated with the sequence `RRIRFRPPRLPRPRPRPLIFPRP`
-0.666

Name the reported shrunken log2 fold change value associated with the sequence `RRIRSRPPRLPRPRPRPYDVPRP`
0.0192

Name the reported shrunken log2 fold change value associated with the sequence `RRIRQRPPRLPRPRPRPHDYPRP`
-0.00281
